Tested on: MOLT-4 leukemia
ASSAY_TEXT: NCI tumour cell line growth inhibition, 48 h
QUANTITY_KIND: TGI

O=C(Nc1ccccc1)c1cc(S(=O)(=O)n2cc[nH]c2=O)c(S)cc1Cl
> 100 µM
c1ccc([Si](OCCN2CC2)(c2ccccc2)c2ccccc2)cc1
36.3 µM
C=C1CCc2ccccc2C1=O
> 100 µM
Cc1cc([N+](=O)[O-])ccc1Sc1c2ccccc2nc2ccccc12
73.1 µM
Cc1nn(CCO)c(C)c1N=[N+]([O-])c1c(C)nn(CCO)c1C
33.3 µM
COc1ccc(CCCNC(=O)Cc2cc(OC)c(OC)cc2CO)cc1OC
> 100 µM
O=C(Nc1ccc(Cl)cc1)c1cc2c(cc1Cl)Sc1nccn1S2(=O)=O
> 100 µM
COc1cc2c[n+](C)c3c4cc(OC)c(OC)cc4c(OCc4ccccc4)cc3c2cc1OC
> 80.1 µM
OCCCNCc1ccncc1
> 100 µM
O=c1[nH]c2cc(F)c(F)cc2nc1Cc1ccccc1
> 100 µM
O=C(O)c1ccccc1Sc1ccccc1[N+](=O)[O-]
> 100 µM
NCCCN1CCN(c2ccccc2)CC1
> 100 µM
O=C(CCCCN1CCOCC1)Nc1ccc(Cn2nnc3c2C(=O)c2nnn(Cc4ccc(NC(=O)CCCCN5CCOCC5)cc4)c2C3=O)cc1
0.788 µM
N#CC1(Cc2ccccc2[N+](=O)[O-])c2ccccc2C2C(N1C(=O)c1ccccc1)C2(Cl)Cl (stereo not drawn)
> 100 µM
CC1(C)c2ccccc2C(C)(C)C(C(=O)Nc2ccccc2)C1C(=O)O (stereo not drawn)
> 100 µM
O=CN/N=C/c1ccc(Cl)c([N+](=O)[O-])c1
46.8 µM
O=C(CCc1ccc(O)c(O)c1)NCCc1cc(O)cc(OCc2ccccc2)c1
> 100 µM
COC(=O)C1CCC2(C)[C@H](CCC3O[C@]32C)[C@@]1(C)CC(=O)c1ccoc1 (stereo partly drawn)
> 100 µM
CSC(=NC#N)S/C=C/C(=O)c1ccc(Cl)cc1
> 100 µM
CC(C)c1ccc(/C=C2\N=C(c3ccc([N+](=O)[O-])cc3)OC2=O)cc1
> 100 µM
CN(C)CCCNCc1ccc(-c2ccc(F)c(Cl)c2)o1
28 µM
COC(=O)CCc1ccc2c(c1)[C@H](C(=O)OC)[C@@H](c1ccc(O)cc1)O2
> 100 µM
O=C(CCc1ccc(O)c(O)c1)OCCc1ccccc1
> 83.4 µM

----------
Tested on: T-47D breast
ASSAY_TEXT: NCI tumour cell line growth inhibition, 48 h; in the data active means GI50 below about 0.43 µM; inactive means the rest
Outcomes: t for active, f for inactive

COC(=O)C1=CN(CC2=CC(=O)C(C)=CC2=O)C=C(C(=O)OC)C1c1cc(OC)ccc1OC
f
CN(C)CCCNCc1ccc(-c2ccc(F)c(Cl)c2)o1
f
O=S(=O)(Nc1ccc(Cl)cc1)c1ccc(-c2cnc(C3CC3)o2)cc1
f
CC1OC(OC2C(O)CC(OC3C(O)CC(OC4CCC5(C)C(CCC6C5CCC5(C)C(C7=CC(=O)OC7)CCC65O)C4)OC3C)OC2C)CC(O)C1O (stereo not drawn)
t
CC(=O)OC1CC2C(C)(C)C(=O)C=C[C@]2(C)C2CC[C@]3(C)C(OCC(=O)[C@H]3c3ccoc3)[C@]12C (stereo partly drawn)
f
CC(=O)N1CCC(Nc2cc(C(=O)NC[C@H](O)CN3CCc4ccccc4C3)ncn2)CC1
f
CC1(C)CC[C@]2(C(N)=O)CC[C@]3(C)C(=CC[C@@H]4[C@@]5(C)C/C(=C/c6cccnc6)C(=O)C(C)(C)[C@@H]5CC[C@]43C)[C@@H]2C1
f
CC(C)=CC(=O)OC1C(CO)OC(Oc2cc(O)c3c(=O)cc(-c4ccc(O)c(O)c4)oc3c2)C(OC2OC(C)C(O)C(O)C2O)C1O (stereo not drawn)
f
